- Target desc: T. brucei N-myristoyl transferase (Trypanosoma brucei brucei (strain 927/4 GUTat10.1))
- Assay procedure: biochemical
- Type: biochemical
- Condition summary: value with no enzyme tag in the cell; taken as T. brucei NMT; read-out: IC50 (μM) NMT Enzyme
# log10 IC50 values compiled below
Friendly reminder: values = log10 of IC50, unit µM.

Guide cases for log10 IC50, answers given:
Compound	log10 IC50
Cc1nn(C)c(C)c1N[S+](=O)([O-])c1ccc(NCc2cccc(CN3CCCCC3)c2)nc1	0.26
CCN(CC)Cc1cccc(-c2ccc([S+](=O)([O-])Nc3c(CC(C)C)nn(C)c3C)cc2)c1	-2.05
Cc1nn(C)c(C)c1NS(=O)(=O)c1c(Cl)cc(-c2cccc3c2CCNC3)cc1Cl	0.41
Cc1nn(C)c(C)c1N[S+](=O)([O-])c1ccc(-c2cccc(Cn3ccnc3)c2)cc1	-0.46
Cc1nn(C)c(C)c1N[S+](=O)([O-])c1ccc(N2CCC(N3CCN(Cc4ccccc4)CC3)C2)nc1 (stereo not drawn)	1.54

Record summary for Cc1nn(C)c(C)c1N[S+](=O)([O-])c1ccc(NCCN2CCN(C(=O)OC(C)(C)C)CC2)nc1 : reported log10 IC50 = 0.00

Record summary for Cc1nn(C)c(C)c1N[S+](=O)([O-])c1ccc(NCCCn2ccnc2)nc1 : reported log10 IC50 = 0.30

Record summary for Cc1c(N[S+](=O)([O-])c2ccc(-c3cccc(CN4CCC(N(C)C)C4)c3)cc2)c(CC(C)C)nn1C (stereo not drawn) : reported log10 IC50 = -0.80

* * *

# log10(IC50) values compiled below
- Target desc: T. brucei N-myristoyl transferase (Trypanosoma brucei brucei (strain 927/4 GUTat10.1), UniProt Q388H8)
- Sequence (Q388H8 1-446): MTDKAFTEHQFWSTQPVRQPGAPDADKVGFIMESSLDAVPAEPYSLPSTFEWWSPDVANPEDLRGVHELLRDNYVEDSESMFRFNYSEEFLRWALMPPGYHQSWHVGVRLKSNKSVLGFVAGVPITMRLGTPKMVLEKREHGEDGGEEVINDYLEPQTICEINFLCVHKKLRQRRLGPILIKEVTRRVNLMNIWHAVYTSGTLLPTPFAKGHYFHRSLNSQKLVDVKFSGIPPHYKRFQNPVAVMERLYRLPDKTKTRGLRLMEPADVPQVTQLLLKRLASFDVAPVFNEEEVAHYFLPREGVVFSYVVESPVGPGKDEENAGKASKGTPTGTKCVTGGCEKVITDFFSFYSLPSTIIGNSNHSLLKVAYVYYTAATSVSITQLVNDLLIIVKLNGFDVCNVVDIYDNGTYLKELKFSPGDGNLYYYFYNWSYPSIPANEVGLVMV
- Assay procedure: biochemical
- Format: biochemical
- Condition summary: value printed without enzyme tag in the NMT Enzyme column (taken as T. brucei NMT); read-out: IC50 (μM) NMT Enzyme
Friendly reminder: values = log10 of IC50, unit µM.

Guide cases for log10(IC50), answers given:
Smiles record	Measurement
COc1ccc([S+](=O)([O-])Nc2c(C)nn(C)c2C)cc1	0.99
COc1ccc(SCc2ccc([S+](=O)([O-])Nc3c(C)nn(C)c3C)cc2)cc1	-0.12

Record summary for COc1cccc(CNc2ccc([S+](=O)([O-])Nc3c(C)nn(C)c3C)cn2)c1 : reported log10(IC50) = 0.20

Record summary for Cc1nn(C)c(C)c1N[S+](=O)([O-])c1ccc(NCc2ccc(-n3ccnc3C)cc2)nc1 : reported log10(IC50) = -0.15

Record summary for Cc1nn(C)c(C)c1N[S+](=O)([O-])c1ccc2ccccc2c1 : reported log10(IC50) = 0.92

Record summary for CC(=O)Nc1cc(C)c([S+](=O)([O-])Nc2c(C)nn(C)c2C)s1 : reported log10(IC50) = 1.84

Record summary for COc1ccc(OCCC[S+](=O)([O-])Nc2c(C)nn(C)c2C)cc1 : reported log10(IC50) = 1.79

* * *

- Target desc: T. brucei N-myristoyl transferase (Trypanosoma brucei brucei (strain 927/4 GUTat10.1), UniProt Q388H8)
- Assay procedure: biochemical
- Assay type: biochemical
- Condition summary: T. brucei NMT; value without parentheses; read-out: IC50 (μM) NMT Enzyme (T. brucei NMT)
# IC50 values compiled below
Record the value in µM, omitting the unit from your answer.

Smiles record	Unit symbol	IC50
Cc1c(N[S+](=O)([O-])c2ccc(-c3cccc(CNC(C)C)c3)cc2)c(CC(C)C)nn1C	µM	0.02
Cc1c(N[S+](=O)([O-])c2ccc(-c3ccccc3CN(C)C)cc2)c(CC(C)C)nn1C	µM	0.358
Cc1c(N[S+](=O)([O-])c2ccc(CCCOC3CCN(C)CC3)cc2)c(CC(C)C)nn1C	µM	0.009
Cc1c(N[S+](=O)([O-])c2ccc(-c3cc(CN(C)C)ccc3F)cc2)c(CC(C)C)nn1C	µM	0.007

We now examine a further compound.
Record summary for Cc1c(N[S+](=O)([O-])c2ccc(CCCCC3CCN(C)CC3)cc2)c(Cc2ccccc2)nn1C : reported IC50 = 0.023

Ref: patent US9156811B2
